From: patent US12576063B2

- experiment: in vivo
- run-parameters: male, dog, whole prostate gland level
property-measured: concentration at 55 day (ng/g)
Entry rule: numbers only, all in ng/g.

INPUT: Give reported concentration at 55 day value for CC(O)(CS(=O)(=O)c1ccc(F)cc1)C(=O)Nc1ccc(C#N)c(C(F)(F)F)c1 (stereo not shown) [bicalutamide]
OUTPUT: 172
